The measurements presented in this section are drawn from ChEMBL document CHEMBL3885881.

Measured MEAN CORPUSCULAR VOLUME values are reported for all entries that follow.
# Species: Rattus norvegicus
# procedureSummary: DrugMatrix - Regimen: Daily Repeat
# Assay type: toxicity, organism-based, Sprague-Dawley
# Design: regimen Daily Repeat, gender Male, age 6-8 weeks
# conditionContext: in vivo, po, 0 mg/kg, 72 h, tissue Blood, route oral GAVAGE, dose level Control, time 3 day, vehicle 100 % WATER
API: value field is a number in fL; no unit string.

Give the measured MEAN CORPUSCULAR VOLUME of COc1cc2nc(N3CCN(C(=O)C4COc5ccccc5O4)CC3)nc(N)c2cc1OC (stereo not drawn) .
63.52

Give the measured MEAN CORPUSCULAR VOLUME of `N[C@@H](Cc1ccc(O)c(O)c1)C(=O)O` .
63.52

Give the measured MEAN CORPUSCULAR VOLUME of `Cc1onc(-c2ccccc2Cl)c1C(=O)N[C@@H]1C(=O)N2[C@@H]1SC(C)(C)[C@@H]2C(=O)O` .
63.7
